- Tested on: canarygrass
- ASSAY_REMARKS: Test C postemergence herbicide test
- Format: in vivo, Phalaris minor
- CONDITION_INFO: postemergence; 62 g ai/ha; scale 0 to 100
MEASURED_METRIC: Plant response rating, Canarygrass

- C=CCN(CC=C)C(=O)c1ccc(F)c(NC(=O)c2cc(C(C)(C)C)nn2CC)c1: 40
- CCn1nc(C2(C)CC2)cc1C(=O)Nc1cccc(C(=O)N2CC=CC2)c1: 40
- CCNC(=O)c1cccc(NC(=O)c2nn(C(C)(C)CC)nc2CC)c1: 45
- CCOC(=O)c1ccc(F)c(NC(=O)c2cc(C3(C)CC3)nn2CC)c1: 30
